ASSAY_REMARKS: duplex formation enthalpy ΔH (Van't Hoff fit of HRM Tm); higher = less exothermic duplex formation
MEASUREMENT_SETUP: temperature for dG: 50 °C; NaCl: 500 mM (unadjusted); backbone: PO-PO (both strands phosphodiester DNA)
PROPERTY: duplex formation enthalpy ΔH (kcal/mol)
Express the result in kcal/mol but write the number alone.

Record excerpt, results attached:
{"SEQUENCE_INPUT": "AACGAATGTCAGCAATT", "RESULT_NUMBER": -74.4}
{"SEQUENCE_INPUT": "ACTGTATCGCCCTA", "RESULT_NUMBER": -70.4}
{"SEQUENCE_INPUT": "CTACCAGCGGCGCCGTT", "RESULT_NUMBER": -92.6}

I'd like to know its duplex formation enthalpy ΔH. The sequence in question is TTCGCGGTCTCCATTA -59.2

Please give the result for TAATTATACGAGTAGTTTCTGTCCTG too. -127

Please give the result for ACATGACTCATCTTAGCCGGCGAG too. -128

----------
ASSAY_REMARKS: duplex melting temperature (HRM, EvaGreen); higher = more stable duplex
MEASUREMENT_SETUP: duplex concentration 2.5 µM; backbone: PS-PO (listed strand fully phosphorothioate, complement phosphodiester)
PROPERTY: duplex melting temperature (°C)
Express the result in °C but write the number alone.

Record excerpt, results attached:
{"SEQUENCE_INPUT": "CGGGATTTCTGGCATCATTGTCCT", "PROPERTY": "duplex melting temperature", "VALUE_UNITS": "°C", "RESULT_NUMBER": 69.2}
{"SEQUENCE_INPUT": "TTGAAAACCCATGTGC", "PROPERTY": "duplex melting temperature", "VALUE_UNITS": "°C", "RESULT_NUMBER": 56.8}
{"SEQUENCE_INPUT": "GTGAAACAATGCTGTAG", "PROPERTY": "duplex melting temperature", "VALUE_UNITS": "°C", "RESULT_NUMBER": 56.3}
{"SEQUENCE_INPUT": "AGAGCGCCCTGCTGCC", "PROPERTY": "duplex melting temperature", "VALUE_UNITS": "°C", "RESULT_NUMBER": 69.1}
{"SEQUENCE_INPUT": "GCGGTTGGTGGCCAAC", "PROPERTY": "duplex melting temperature", "VALUE_UNITS": "°C", "RESULT_NUMBER": 65.5}

I'd like to know its duplex melting temperature. The sequence in question is CTCGGAGGCCCCATTTA 63.6

Please give the result for TTCGCGGTCTCCATTA too. 60.5

Please give the result for CGACATGTATGGCACAG too. 60.8

Please give the result for ACGGGTCGTTCCGTG too. 61

----------
ASSAY_REMARKS: duplex melting temperature (HRM, EvaGreen); higher = more stable duplex
MEASUREMENT_SETUP: duplex concentration 15 µM; backbone: PS-PS (both strands fully phosphorothioate)
Catalogue of sequences with associated duplex melting temperature
Express the result in °C but write the number alone.

Record excerpt, results attached:
{"SEQUENCE_INPUT": "TTAACCTGCAATGGATC", "VALUE_UNITS": "°C", "duplex melting temperature": 54}
{"SEQUENCE_INPUT": "AGAGCGCCCTGCTGCC", "VALUE_UNITS": "°C", "duplex melting temperature": 69.3}
{"SEQUENCE_INPUT": "CTCAGAGTAGAGCCGA", "VALUE_UNITS": "°C", "duplex melting temperature": 58.6}
{"SEQUENCE_INPUT": "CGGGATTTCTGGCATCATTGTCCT", "VALUE_UNITS": "°C", "duplex melting temperature": 65.7}
{"SEQUENCE_INPUT": "TGCCATGTTGAAAACC", "VALUE_UNITS": "°C", "duplex melting temperature": 51.7}

I'd like to know its duplex melting temperature. The sequence in question is GCGGTTGGTGGCCAAC 64.6

Please give the result for CGATTTTGTCAAGCCT too. 53.5

Please give the result for GAACTGCCACTACCAA too. 57.7

Please give the result for TACTTCCAACGTAGG too. 50.8

----------
ASSAY_REMARKS: duplex formation enthalpy ΔH (Van't Hoff fit of HRM Tm); higher = less exothermic duplex formation
MEASUREMENT_SETUP: temperature for dG: 50 °C; NaCl: 500 mM (unadjusted); backbone: PS-PS (both strands fully phosphorothioate)
// thresholds for duplex formation enthalpy ΔH classes: bin 0: < -80 kcal/mol; bin 1: ≥ -80 kcal/mol and < -70 kcal/mol; bin 2: ≥ -70 kcal/mol

Take a look at these entries with their results.
{"SEQUENCE_INPUT": "TGTCGCACCCTACTA", "CLASS_LABEL": "bin 2"}
{"SEQUENCE_INPUT": "AGGAGTGAATGAAATGG", "CLASS_LABEL": "bin 1"}
{"SEQUENCE_INPUT": "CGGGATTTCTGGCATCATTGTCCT", "CLASS_LABEL": "bin 0"}
{"SEQUENCE_INPUT": "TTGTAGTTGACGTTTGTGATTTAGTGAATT", "CLASS_LABEL": "bin 0"}
{"SEQUENCE_INPUT": "CTACCAGCGGCGCCGTT", "CLASS_LABEL": "bin 1"}

Which band does GTGGTACAAATGCGACC fall in? bin 1

Please give the result for CAAGCCTCGATTTTGT too. bin 2

Please give the result for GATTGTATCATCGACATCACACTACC too. bin 0

Please give the result for CTCGGAGGCCCCATTTA too. bin 1

Please give the result for CCGTTGCTGCTAGG too. bin 2

----------
ASSAY_REMARKS: duplex formation entropy ΔS (Van't Hoff fit of HRM Tm); higher = smaller entropy loss on duplex formation
MEASUREMENT_SETUP: temperature for dG: 50 °C; NaCl: 500 mM (unadjusted); backbone: PS-PS (both strands fully phosphorothioate)
Catalogue of sequences with associated duplex formation entropy ΔS
Express the result in cal/mol/K but write the number alone.

{"SEQUENCE_INPUT": "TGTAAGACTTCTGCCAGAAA", "duplex formation entropy ΔS, cal/mol/K": -196}
{"SEQUENCE_INPUT": "AATGAGGAGTGAAATGG", "duplex formation entropy ΔS, cal/mol/K": -198}
{"SEQUENCE_INPUT": "CCACTAGCGGCGCCGTT", "duplex formation entropy ΔS, cal/mol/K": -207}
{"SEQUENCE_INPUT": "CCGCTCAGAGTAGAGA", "duplex formation entropy ΔS, cal/mol/K": -183}
{"SEQUENCE_INPUT": "TATTCTGCCAATGGAAC", "duplex formation entropy ΔS, cal/mol/K": -189}

I'd like to know its duplex formation entropy ΔS. The sequence in question is AACGAATGTCAGCAATT -184

Please give the result for TCTACACCGCGA too. -111

Please give the result for ACGGGTCGTTCCGTG too. -186

Please give the result for CGACATGTATGGCACAG too. -214

----------
ASSAY_REMARKS: duplex melting temperature (HRM, EvaGreen); higher = more stable duplex
MEASUREMENT_SETUP: duplex concentration 5 µM; backbone: PO-PO (both strands phosphodiester DNA)
PROPERTY: duplex melting temperature (°C)
Express the result in °C but write the number alone.

{"SEQUENCE_INPUT": "GAACTGCCACTACCAA", "duplex melting temperature / °C": 67.3}
{"SEQUENCE_INPUT": "GAGCAGAAGGGGTTGT", "duplex melting temperature / °C": 68.2}

I'd like to know its duplex melting temperature. The sequence in question is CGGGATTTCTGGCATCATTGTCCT 78.2

Please give the result for CGGTGCTTTTGGTAGC too. 68.2

Please give the result for AATGTCGAACAGCAATT too. 67.2

Please give the result for AGAGCGCCCTGCTGCC too. 78.8

Please give the result for TAGACGCGGCCTCTTTCC too. 76.5

Please give the result for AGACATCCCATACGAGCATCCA too. 77

Please give the result for CACAGCGACATGTATGG too. 70

Please give the result for GGTTGCGGTGGCCAAC too. 74.8

Please give the result for AATGAGGAGTGAAATGG too. 65.1

Please give the result for TATTCTGCCAATGGAAC too. 65.5

Please give the result for CCGTTGCTGCTAGG too. 68

Please give the result for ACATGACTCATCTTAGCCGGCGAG too. 80.6

Please give the result for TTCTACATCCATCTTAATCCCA too. 70.6

Please give the result for CCACTAGCGGCGCCGTT too. 80

Please give the result for AGGAGTGAATGAAATGG too. 64.6

Please give the result for TCTCGCGGTTCCATTA too. 68.7

Please give the result for TACTTCCAACGTAGG too. 62
